# conditionSummary: bacteroides thetaiotaomicron, 12 h, 2 µM
# Description: The drug is tested on Bacteroides thetaiotaomicron strain: 7330 for biotransformation. The drug concentrations were measured before and after a 12-h incubation by liquid-chromatography-coupled mass spectrometry (LC–MS)
readoutKind: Bacterial Biotransformation

These recorded examples may help you get a feel for the data.
For record Fc1ccc([C@@H]2CCNC[C@H]2COc2ccc3c(c2)OCO3)cc1 [PAROXETINE] the listed Bacterial Biotransformation is Compound NOT metabolized

Form: molecule = CCN(CC)CCCC(C)Nc1c2ccc(Cl)cc2nc2ccc(OC)cc12 (centres undefined) [QUINACRINE] ; Bacterial Biotransformation = Compound NOT metabolized

The measured Bacterial Biotransformation associated with CN(C)C(=O)Oc1cccc([N+](C)(C)C)c1.[Br-] [NEOSTIGMINE BROMIDE] reads Compound metabolized

Reported Bacterial Biotransformation of CC(C)NCC(O)COc1ccc(COCCOC(C)C)cc1.CC(C)NCC(O)COc1ccc(COCCOC(C)C)cc1.O=C(O)/C=C/C(=O)O (centres undefined) [BISOPROLOL FUMARATE] : Compound NOT metabolized

Reported Bacterial Biotransformation of CC(C)[C@H]1CC[C@H](C(=O)N[C@H](Cc2ccccc2)C(=O)O)CC1 [NATEGLINIDE] : Compound NOT metabolized

New cases:
The recorded Bacterial Biotransformation for CCOC(=O)C1=C[C@]2(CC)CCCN3CCc4c(n1c1ccccc41)[C@@H]32 [VINPOCETINE] is Compound NOT metabolized

Memo: CN1CCC[C@@H]1CCO[C@](C)(c1ccccc1)c1ccc(Cl)cc1.O=C(O)/C=C/C(=O)O [CLEMASTINE FUMARATE] , reported Bacterial Biotransformation: Compound metabolized

The molecule identified as COc1cc2nc(N3CCN(C(=O)c4ccco4)CC3)nc(N)c2cc1OC [PRAZOSIN] registered its Bacterial Biotransformation at Compound NOT metabolized

Noted for CN1CC(=O)N2[C@H](c3ccc4c(c3)OCO4)c3[nH]c4ccccc4c3C[C@@H]2C1=O : its Bacterial Biotransformation reads Compound metabolized
